Below is a list of entries, each paired with its recorded normalised inhibition (eCFP-eYFP dual reporter) value.
target: SOST; test: reporter assay of Huesken 2005; details: siRNA; also: test concentration or dose not given here
Oligonucleotides are given in HELM: sugar(base)linkage, 5' to 3'; d 2'-deoxyribose, r ribose, m 2'-O-methylribose, p phosphate. ss, as = sense and antisense strand
reported property: normalised inhibition (eCFP-eYFP dual reporter) (%)

substance: RNA1{r(C)p.r(C)p.r(G)p.r(G)p.r(U)p.r(G)p.r(G)p.r(U)p.r(G)p.r(A)p.r(G)p.r(G)p.r(C)p.r(G)p.r(C)p.r(C)p.r(G)p.r(C)p.r(G)p.d(T)p.d(T)}|RNA2{r(C)p.r(G)p.r(C)p.r(G)p.r(G)p.r(C)p.r(G)p.r(C)p.r(C)p.r(U)p.r(C)p.r(A)p.r(C)p.r(C)p.r(A)p.r(C)p.r(C)p.r(G)p.r(G)p.d(G)p.d(A)}$$$RNA1{StrandType:ss}|RNA2{StrandType:as}$
val: 35.8
--
substance: RNA1{r(C)p.r(A)p.r(C)p.r(C)p.r(C)p.r(C)p.r(U)p.r(U)p.r(U)p.r(G)p.r(A)p.r(G)p.r(A)p.r(C)p.r(C)p.r(A)p.r(A)p.r(A)p.r(G)p.d(T)p.d(T)}|RNA2{r(C)p.r(U)p.r(U)p.r(U)p.r(G)p.r(G)p.r(U)p.r(C)p.r(U)p.r(C)p.r(A)p.r(A)p.r(A)p.r(G)p.r(G)p.r(G)p.r(G)p.r(U)p.r(G)p.d(G)p.d(T)}$$$RNA1{StrandType:ss}|RNA2{StrandType:as}$
val: 72.2

* * *

Below is a list of entries, each paired with its recorded normalised inhibition (eCFP-eYFP dual reporter) value.
target: P2RX3; experiment: reporter assay of Huesken 2005; conditions: siRNA
Oligonucleotides are written 5' to 3', each unit as a sugar letter and its base; * is a phosphorothioate linkage, no mark a phosphodiester; rarer units and linkages stand in square brackets, end groups in braces. Plain capitals give the bases only. d = 2'-deoxy (DNA); r = 2'-OH (RNA)
reported property: normalised inhibition (eCFP-eYFP dual reporter) (%)

substance: sense rGrCrGrGrCrCrUrUrUrArCrUrUrCrUrGrUrGrGdTdT / antisense rCrCrArCrArGrArArGrUrArArArGrGrCrCrGrCdCdA
val: 61.4
--
substance: sense rCrCrGrGrCrUrCrGrArCrArGrCrGrUrUrUrCrUdTdT / antisense rArGrArArArCrGrCrUrGrUrCrGrArGrCrCrGrGdGdT
val: 98
--
substance: sense rArUrGrUrGrUrCrUrGrArUrUrArCrGrUrGrArCdTdT / antisense rGrUrCrArCrGrUrArArUrCrArGrArCrArCrArUdCdC
val: 33.9
--
substance: sense rCrUrUrUrArCrUrUrCrUrGrUrGrGrGrArGrUrGdTdT / antisense rCrArCrUrCrCrCrArCrArGrArArGrUrArArArGdGdC
val: 67.7
--
substance: sense rUrCrArGrArCrArGrCrCrArGrUrGrCrGrGrGrCdTdT / antisense rGrCrCrCrGrCrArCrUrGrGrCrUrGrUrCrUrGrAdTdA
val: 23.8
--
substance: sense rUrGrCrArUrCrCrCrCrArArArUrArCrUrCrCrUdTdT / antisense rArGrGrArGrUrArUrUrUrGrGrGrGrArUrGrCrAdCdT
val: 56.3
--
substance: sense rGrArCrCrCrUrUrUrCrUrGrCrCrCrCrArUrCrUdTdT / antisense rArGrArUrGrGrGrGrCrArGrArArArGrGrGrUrCdCdT
val: 65.8
--
substance: sense rGrArGrGrArGrArArArUrArCrCrGrCrUrGrUrGdTdT / antisense rCrArCrArGrCrGrGrUrArUrUrUrCrUrCrCrUrCdAdC
val: 67.4
--
substance: sense rUrGrUrCrUrGrArUrUrArCrGrUrGrArCrGrCrCdTdT / antisense rGrGrCrGrUrCrArCrGrUrArArUrCrArGrArCrAdCdA
val: 43.1
--
substance: sense rArCrArGrCrCrArGrGrGrArCrArUrGrArArGrAdTdT / antisense rUrCrUrUrCrArUrGrUrCrCrCrUrGrGrCrUrGrUdCdA
val: 78.1
--
substance: sense rArGrGrArGrArArArUrArCrCrGrCrUrGrUrGrUdTdT / antisense rArCrArCrArGrCrGrGrUrArUrUrUrCrUrCrCrUdCdA
val: 71.8
--
substance: sense rGrGrCrCrGrArCrCrArGrUrArCrArArArGrCrCdTdT / antisense rGrGrCrUrUrUrGrUrArCrUrGrGrUrCrGrGrCrCdCdC
val: 68
--
substance: sense rArUrUrGrUrUrArCrUrGrArArArArUrCrArGrAdTdT / antisense rUrCrUrGrArUrUrUrUrCrArGrUrArArCrArArUdCdA
val: 74.6
--
substance: sense rUrUrArArGrArUrCrGrGrCrUrGrGrGrUrGrUrGdTdT / antisense rCrArCrArCrCrCrArGrCrCrGrArUrCrUrUrArAdTdG
val: 55.4
--
substance: sense rUrUrUrCrUrGrCrCrCrCrArUrCrUrUrGrCrGrGdTdT / antisense rCrCrGrCrArArGrArUrGrGrGrGrCrArGrArArAdGdG
val: 35.2
--
substance: sense rGrCrUrCrCrGrGrArCrUrCrUrArCrGrCrCrArAdTdT / antisense rUrUrGrGrCrGrUrArGrArGrUrCrCrGrGrArGrCdCdC
val: 87.3
--
substance: sense rGrCrGrGrGrUrArGrGrGrGrArCrGrUrGrGrUrCdTdT / antisense rGrArCrCrArCrGrUrCrCrCrCrUrArCrCrCrGrCdAdA
val: 37.2
--
substance: sense rArArGrArCrCrUrGrCrCrGrCrUrUrCrCrArCrCdTdT / antisense rGrGrUrGrGrArArGrCrGrGrCrArGrGrUrCrUrUdCdA
val: 39.9
--
substance: sense rCrGrCrArCrCrCrUrCrCrUrGrArArGrGrCrUrUdTdT / antisense rArArGrCrCrUrUrCrArGrGrArGrGrGrUrGrCrGdGdT
val: 67.9
--
substance: sense rGrCrGrGrGrGrCrArGrGrArUrUrUrUrGrCrCrAdTdT / antisense rUrGrGrCrArArArArUrCrCrUrGrCrCrCrCrGrCdAdA
val: 67.8
--
substance: sense rCrArGrGrCrUrArCrArArCrUrUrCrArGrGrUrUdTdT / antisense rArArCrCrUrGrArArGrUrUrGrUrArGrCrCrUrGdGdG
val: 95.5
--
substance: sense rGrGrArArArCrGrCrCrCrArUrCrArUrGrArUrGdTdT / antisense rCrArUrCrArUrGrArUrGrGrGrCrGrUrUrUrCrCdAdC
val: 74.8
--
substance: sense rArCrCrUrGrUrGrArGrArUrCrCrArGrGrGrCrUdTdT / antisense rArGrCrCrCrUrGrGrArUrCrUrCrArCrArGrGrUdCdC
val: 50.2
--
substance: sense rGrGrCrCrGrCrUrGrCrGrUrGrArArCrUrArCrAdTdT / antisense rUrGrUrArGrUrUrCrArCrGrCrArGrCrGrGrCrCdAdG
val: 72.3
